Biological target: Muscarinic acetylcholine receptor M2 (Homo sapiens, UniProt P08172)
Sequence (P08172 whole entry): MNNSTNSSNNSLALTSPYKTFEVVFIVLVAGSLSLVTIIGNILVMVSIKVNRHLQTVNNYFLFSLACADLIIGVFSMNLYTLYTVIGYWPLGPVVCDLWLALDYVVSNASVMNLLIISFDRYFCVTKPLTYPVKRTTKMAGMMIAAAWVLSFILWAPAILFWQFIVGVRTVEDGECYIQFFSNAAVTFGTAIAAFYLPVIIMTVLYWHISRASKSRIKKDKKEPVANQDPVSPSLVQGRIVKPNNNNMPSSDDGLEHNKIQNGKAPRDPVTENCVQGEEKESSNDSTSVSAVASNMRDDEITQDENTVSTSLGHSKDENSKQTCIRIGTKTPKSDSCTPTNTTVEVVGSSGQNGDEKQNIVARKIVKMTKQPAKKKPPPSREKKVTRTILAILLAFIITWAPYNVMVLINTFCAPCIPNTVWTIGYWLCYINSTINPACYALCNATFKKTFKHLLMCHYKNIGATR
Test: Antagonist activity at human muscarinic M2 receptor expressed in CHO cells assessed as inhibition of acetylcholine-induced calcium mobilization by FLIPR assay
pIC50: −log10 of the molar value.
test-readout: pIC50

Examples with their reported pIC50 follow.
>>> print(df.to_string())
                           structure_smiles  test_readout  quantitative_result
0  CC(C)OC(=O)c1ccc(NC(=O)N[C@@H](Cc2ccc(O)cc2)C(=O)NCCC[N+](C)(C)Cc2ccc3ccccc3c2)cc1         pIC50                 6.39
1  CC[N+]1(C2CCN(C(=O)[C@H](Cc3ccc(O)cc3)NC(=O)Nc3ccc(C(=O)OC(C)C)cc3)CC2)CCCC1         pIC50                 6.26
2  CC(C)OC(=O)c1ccc(NC(=O)N[C@@H](Cc2ccc(O)cc2)C(=O)NCC(C)(C)C[N+](C)(C)Cc2ccc(Cl)cc2)cc1         pIC50                 7.06

(P) CC(C)OC(=O)c1ccc(NC(=O)N[C@@H](Cc2ccc(O)cc2)C(=O)NCC[N+](C)(C(C)C)C(C)C)cc1
(Q) CC(C)OC(=O)c1ccc(NC(=O)N[C@@H](Cc2ccc(O)cc2)C(=O)N2CCC[C@H]([N+](C)(C)Cc3ccc(Cl)cc3)C2)cc1
Challenge: # query: argmin of pIC50 over P and Q // caller expects the label of the chosen entry
Response given: P
(P: 6.47, Q: 6.98)

----------
Target: Muscarinic acetylcholine receptor M1 (Homo sapiens)
Sequence (P11229 whole entry): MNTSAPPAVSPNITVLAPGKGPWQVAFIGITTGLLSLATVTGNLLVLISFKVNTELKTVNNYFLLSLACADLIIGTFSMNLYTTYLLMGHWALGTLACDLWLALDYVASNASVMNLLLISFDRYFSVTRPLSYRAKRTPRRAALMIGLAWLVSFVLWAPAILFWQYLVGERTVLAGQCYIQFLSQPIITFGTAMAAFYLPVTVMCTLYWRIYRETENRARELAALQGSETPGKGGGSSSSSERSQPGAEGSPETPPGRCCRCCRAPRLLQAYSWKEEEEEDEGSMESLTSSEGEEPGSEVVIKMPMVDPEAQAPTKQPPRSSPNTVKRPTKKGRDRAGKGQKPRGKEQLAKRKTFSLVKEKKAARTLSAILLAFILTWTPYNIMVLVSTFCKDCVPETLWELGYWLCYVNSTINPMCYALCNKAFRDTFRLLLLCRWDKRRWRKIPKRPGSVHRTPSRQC
Test: Antagonist activity at human muscarinic M1 receptor expressed in CHO cells assessed as inhibition of acetylcholine-induced calcium mobilization by FLIPR assay
Assay type: functional, cell-based
pIC50: −log10 of the molar value.
test-readout: pIC50

(a) CC(C)OC(=O)c1ccc(NC(=O)N[C@@H](Cc2ccc(O)cc2)C(=O)N2CC[N+](C)(CC3CCCCC3)CC2)cc1
(b) CC(C)OC(=O)c1ccc(NC(=O)N[C@@H](Cc2ccc(O)cc2)C(=O)N2CC[N+](C)(CCc3ccccc3)CC2)cc1
Challenge: Returns: the argument ( a or b ) having the larger pIC50. Answer = label.
Response given: b
(b: 5.87, a: 5.60)

(a) CC(C)OC(=O)c1ccc(NC(=O)N[C@@H](Cc2ccc(O)cc2)C(=O)N2CC[N+](Cc3ccc(Cl)cc3)(C(C)C)CC2)cc1
(b) CC(C)OC(=O)c1ccc(NC(=O)N[C@@H](Cc2ccc(O)cc2)C(=O)NCC[N+](C)(C)Cc2ccc(Cl)cc2)cc1
Challenge: Which one would you say has the larger pIC50 value: a , or b ? Which one? Tell me its label.
Response given: a
(a: 6.05, b: 5.84)

(1) CC[N+](CC)(CCNC(=O)[C@H](Cc1ccc(O)cc1)NC(=O)Nc1ccc(C(=O)OC(C)C)cc1)Cc1ccc(Cl)cc1
(2) CC(C)OC(=O)c1ccc(NC(=O)N[C@@H](Cc2ccc(O)cc2)C(=O)N2CCC[C@H]([N+](C)(C)Cc3ccc(Cl)cc3)C2)cc1
Challenge: Between the entries labelled 1 and 2 , which has a larger pIC50 value on record? Output the label that corresponds to your choice.
Response given: 1
(1: 6.23, 2: 5.95)

(P) CC(C)OC(=O)c1ccc(NC(=O)N[C@@H](Cc2ccc(O)cc2)C(=O)NCC[N+]2(Cc3ccc(Cl)cc3)CCCC2)cc1
(Q) CC(C)OC(=O)c1ccc(NC(=O)N[C@@H](Cc2ccc(O)cc2)C(=O)NCC[N+](C)(C)C23CC4CC(CC(C4)C2)C3)cc1
Challenge: Could you tell me which of P and Q has the lower pIC50 reading? Respond with the label that goes with your answer.
Response given: P
(P: 6.38, Q: 7.88)
